- target or system: camel-derived heavy-chain antibodies on camel PBMC cells
- protocol summary: flow cytometry, PE-labeled antibody on PBMC of a non-immunized camel
experimental endpoint: proportion of PBMC cells specific for heavy-chain antibodies (%)

- binder: "R166.E7 (antibody, V domains shown) VH: QSVEESGGRLVTPGTPLTLTCTVSGFSLSSFAMSWVRQAPGKGLEWIGIIYTGGTRDYATWAKGRFTISKTSTTVDLKMTSPTTEDTATYFCARDRSPDYSAAFNLWGQGTLVTVSS VL: IVMTQTPSSKSVPVGDTVTINCQASESVYSNNHLAWFQQKPGQPPKLLIYSASTLESGVPSRFKGSGSGTQFTLTISGVQCDDAATYYCAGYKSSDTDGTSFGGGTEVVVKG"
  units text: "%"
  recorded result: 23.3
- binder: "R166.G8 (antibody, V domains shown) VH: LEQSGGGAEGGLVKPGGSLELCCKASGFSLSNIYWICWVRQAPGTGLEWIGCINSGSNSYTYYANWVDGRFTLSRDIDQSTGCLQLNSLTAADTAMYYCARDRDAADTSDWSLNFWGQGTLVTVSS VL: QVLTQTPSSVSAAVGGTVTISCQSSDSVNNDNWLAWYQQKPGQPPKLLIYQASKLASGVPSRFSGSGSGTQFTLTISGVQCDDAANYYCQGTGYSSTWYVAFGGGTEVVVKG"
  units text: "%"
  recorded result: 17.2
- binder: "R166.C5 (antibody, V domains shown) VH: QSVEESGGRLVTPGTPLTLTCTVSGFSLRNFAMSWVRQAPGKGLEWIGIIYSGGTRDYATWAKGRFTISKTSTTVDLKMTSPTTEDTATYFCARDRSPDYSAAFLLWGQGTLVTVSS VL: IVMTQTPSSKSVPVGDTVTINCQASESVYSNNHLAWFQQKPGQPPKLLIYSASTLESGVPSRFKGSGSGTQFTLTISGVQCDDAATYYCAGYKSSDTDGTSFGGGTEVVVKG"
  units text: "%"
  recorded result: 22.8
- binder: "R166.H8 (antibody, V domains shown) VH: QSVEESGGRLVTPGTPLTLTCTVSGFSLSSFAMSWVRQAPGKGLEWIGIIYATGGTRDYATWAAGRFTISKTSTTVGLKMTSPTTEDTATYFCARDRSPDYSAAFNLWGQGTLVTVSS VL: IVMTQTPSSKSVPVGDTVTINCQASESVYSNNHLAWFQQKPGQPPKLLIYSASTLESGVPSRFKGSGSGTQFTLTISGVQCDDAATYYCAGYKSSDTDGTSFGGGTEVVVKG"
  units text: "%"
  recorded result: 23.6
